Where these numbers come from: ChEMBL document CHEMBL4808148

- target.desc: Protein deacetylase HDAC6 (Homo sapiens) (UniProt Q9UBN7)
- Sequence (Q9UBN7 whole entry): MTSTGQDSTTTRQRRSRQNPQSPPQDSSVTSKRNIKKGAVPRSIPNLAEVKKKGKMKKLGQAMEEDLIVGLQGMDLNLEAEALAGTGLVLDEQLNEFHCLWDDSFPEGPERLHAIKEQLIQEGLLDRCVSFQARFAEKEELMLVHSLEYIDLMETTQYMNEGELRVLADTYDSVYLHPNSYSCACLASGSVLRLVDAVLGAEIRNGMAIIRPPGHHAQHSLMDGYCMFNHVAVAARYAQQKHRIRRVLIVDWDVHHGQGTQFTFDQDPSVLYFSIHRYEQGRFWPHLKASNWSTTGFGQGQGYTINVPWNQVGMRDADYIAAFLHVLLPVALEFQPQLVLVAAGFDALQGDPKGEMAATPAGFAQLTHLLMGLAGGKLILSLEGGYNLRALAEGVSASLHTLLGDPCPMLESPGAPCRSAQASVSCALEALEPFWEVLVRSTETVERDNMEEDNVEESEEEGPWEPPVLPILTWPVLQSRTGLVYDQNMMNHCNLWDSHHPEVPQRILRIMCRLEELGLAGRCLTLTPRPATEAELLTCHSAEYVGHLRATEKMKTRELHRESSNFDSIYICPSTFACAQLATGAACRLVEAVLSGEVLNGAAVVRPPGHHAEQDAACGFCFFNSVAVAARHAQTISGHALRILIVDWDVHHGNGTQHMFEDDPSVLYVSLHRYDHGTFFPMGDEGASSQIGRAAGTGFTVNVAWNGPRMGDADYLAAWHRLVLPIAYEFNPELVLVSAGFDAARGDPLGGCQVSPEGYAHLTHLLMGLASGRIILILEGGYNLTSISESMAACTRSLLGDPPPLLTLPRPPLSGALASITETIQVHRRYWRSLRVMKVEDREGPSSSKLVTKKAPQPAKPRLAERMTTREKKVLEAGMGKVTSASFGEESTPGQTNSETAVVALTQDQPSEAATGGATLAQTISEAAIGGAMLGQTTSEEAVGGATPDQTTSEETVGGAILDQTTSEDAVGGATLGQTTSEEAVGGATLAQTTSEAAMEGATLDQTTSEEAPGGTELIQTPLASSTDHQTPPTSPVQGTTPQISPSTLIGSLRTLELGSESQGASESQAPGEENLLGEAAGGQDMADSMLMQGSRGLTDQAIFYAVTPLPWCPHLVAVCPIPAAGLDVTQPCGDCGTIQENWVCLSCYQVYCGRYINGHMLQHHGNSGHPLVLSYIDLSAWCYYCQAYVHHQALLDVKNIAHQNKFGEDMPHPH
- condition.parameters: at 10 µM
Among all 5,600 compounds or so, about 390 (7%) showed an effect of 50% or more. The sample as a whole holds a higher share of strong results than the screen did.
Listed below: inhibition values for each entry.
readout: inhibition

> print(dat)
                           structure.smiles     readout  observed
1  CC1(C)Oc2ccc(C#N)cc2[C@@H](N2CCCC2=O)[C@@H]1O  inhibition    -9.16%
2   O=C1Nc2ccc(I)cc2C1=Cc1cc(Br)c(O)c(Br)c1  inhibition     72.9%
3          O=[N+]([O-])c1cccc2c(Br)n[nH]c12  inhibition    -0.83%
4  CCc1cn([C@H]2C[C@H](O)[C@@H](CO)O2)c(=O)[nH]c1=O  inhibition    -6.76%
5  O=C(Nc1cccnc1)c1cc(-c2ccnc(F)c2)ccc1OCc1ccccc1  inhibition     9.93%
6                      Nc1ccc(O)c(C(=O)O)c1  inhibition     0.62%

====

- target.desc: Protein deacetylase HDAC6 (Homo sapiens) (UniProt Q9UBN7)
- condition.parameters: at 10 µM
In all, about 5,600 compounds went through this assay and about 390 (7%) showed an effect of 50% or more. For the sample, strong results were picked, then their nearest neighbours and some compounds at random.
Listed below: inhibition values for each entry.
readout: inhibition

molecule	readout	observed
CC1=C(/C=C/C(C)=C/C=C/C(C)CC=O)C(C)(C)CCC1 (stereo not drawn)	inhibition	0.68%
C[C@@H](c1nc(-c2ccc(C#N)cc2)cs1)[C@](O)(Cn1cncn1)c1ccc(F)cc1F	inhibition	13.6%
N#Cc1cnc2cnc(NCc3cccnc3)cc2c1Nc1ccc(F)c(Cl)c1	inhibition	-0.05%
CC(=O)c1c(C)c2cnc(Nc3ccc(N4CCNCC4)cn3)nc2n(C2CCCC2)c1=O	inhibition	3.93%
O=C(O)c1ccc(/C=C2/SC(=S)N(c3cccc(C(F)(F)F)c3)C2=O)cc1	inhibition	4.63%
CN(Cc1ccccc1)C(=O)[C@H](Cc1ccc2ccccc2c1)NC(=O)[C@@H]1C[C@@H](O)CN1C(=O)c1cn(C)c2ccccc12	inhibition	84.1%
CC(C)=CCC[C@](C)(O)[C@H]1CC[C@]2(C)[C@@H]1[C@H](O)C[C@@H]1[C@@]3(C)CC[C@H](O[C@@H]4O[C@H](CO)[C@@H](O)[C@H](O)[C@H]4O[C@@H]4O[C@H](CO)[C@@H](O)[C@H](O)[C@H]4O)C(C)(C)[C@@H]3CC[C@]12C	inhibition	11.5%
CCCOC(=O)c1ccc(O)cc1	inhibition	73%
CCNC(=O)/C=C/c1cccc(Br)c1	inhibition	54.9%
CCCCc1ccc(NS(=O)(=O)c2ccc(F)cc2)cc1	inhibition	18.6%
N=C1NC(=O)/C(=C/c2ccc(O)cc2)S1	inhibition	28.8%
Nc1ccn([C@@H]2O[C@H](CO)[C@@H](O)C2(F)F)c(=O)n1	inhibition	-4.87%
O=C(/C=C/c1ccccc1)NCCO	inhibition	81.5%
CCOc1ccc(C(=O)OCCN(CC)CC)cc1	inhibition	4.93%
COc1cc(C(=S)N2CCOCC2)cc(OC)c1OC	inhibition	14.8%
C=C1/C(=C\C=C2/CCC[C@]3(C)[C@@H]([C@H](C)CCCC(C)C)CC[C@@H]23)C[C@@H](O)C[C@@H]1O	inhibition	-2.44%
FC(F)(F)c1cc(NC(=S)Nc2ccc(Br)cc2-c2nnn[nH]2)cc(C(F)(F)F)c1	inhibition	74.5%
Cc1cn([C@H]2C=C[C@@H](CO)O2)c(=O)[nH]c1=O	inhibition	102%
CN(C)C(=N)NCCC[C@H](N)C(=O)O	inhibition	23.2%
CCC(CC)(CC(=O)Nc1cccc(/C=C/c2nc(C3CCC3)cs2)c1)C(=O)O	inhibition	87.3%
S=C(NCCc1ccccn1)Nc1ccc(Br)cn1	inhibition	8.48%
Cn1ccnc1S	inhibition	-0.6%
CC(=O)Oc1c(C)cc(OCC(O)CNC(C)C)c(C)c1C (stereo not drawn)	inhibition	28.4%
CCN(CC)CCOC(=O)C1(c2ccc([N+](=O)[O-])cc2)CCCC1	inhibition	17.3%
Nc1cc(F)ccc1NC(=O)/C=C/c1cnn(C/C=C/c2ccccc2)c1	inhibition	12.4%
CCc1ccc(OCc2ccccc2C(=O)Nc2ccc3nc(C)cc(N)c3c2)cc1	inhibition	80.4%
Cn1cc(C(=O)OCC2CCN(CCNS(C)(=O)=O)CC2)c2ccccc21	inhibition	-8.82%
COc1cc(/C=C/C(=O)CC(=O)/C=C/c2ccc(O)c(OC)c2)ccc1O	inhibition	38.8%
O=c1c(-c2ccccc2)c1-c1ccccc1	inhibition	68.4%
CCC/C=C1\OC(=O)C2=C1CCC=C2	inhibition	39.5%
C[C@@H](c1nc(-c2ccc(C#N)cc2)cs1)[C@](O)(Cn1cncn1)c1cc(F)ccc1F	inhibition	13.7%
O=C1NC(=O)/C(=C/c2ccc(-c3ccc(F)cc3O)o2)S1	inhibition	90.4%
CN1CCN2c3c(cccc31)[C@@H]1CN(CCCC(=O)c3ccc(F)cc3)CC[C@@H]12	inhibition	-3.09%
CC(C)n1nc(C#Cc2ccccc2)c2c(N)ncnc21	inhibition	19%
C[C@H]1CC[C@@]2(OC1)O[C@H]1C[C@H]3[C@@H]4CC[C@@H]5C[C@@H](O)CC[C@]5(C)[C@H]4CC[C@]3(C)[C@H]1[C@@H]2C	inhibition	5.04%
O=c1[nH]c(=O)n([C@H]2C[C@H](O)[C@@H](CO)O2)cc1F	inhibition	12.7%
CC(C)(Sc1ccc(CCN(CCCCC2CCCCC2)C(=O)NC2CCCCC2)cc1)C(=O)O	inhibition	10.4%
COc1ccc([C@@H]2Sc3ccccc3N(CCN(C)C)C(=O)[C@@H]2OC(C)=O)cc1	inhibition	10.1%
CC[N+](C)(CC)CCOC(=O)C(O)(c1ccccc1)C1CCCCC1 (stereo not drawn)	inhibition	-2.19%
CC(C)c1onc(-c2c(Cl)cccc2Cl)c1COc1ccc(/C=C/c2cccc(C(=O)O)c2)c(Cl)c1	inhibition	3.22%
CC1CCC(NC(=O)N(CCCl)N=O)CC1 (stereo not drawn)	inhibition	48.2%
O=C(/C=C/c1c(C(=O)O)[nH]c2cc(Cl)cc(Cl)c12)Nc1ccccc1	inhibition	27.4%
Cc1ccc(-c2ncc[nH]2)cc1NC(=O)c1ccc(OCc2ccccn2)cc1	inhibition	21.3%
